Hey, just so you know, these numbers are from patent US20250276077A1.

- target_or_test_system: Human EphA2 (ephrin receptor A2) on cells (human, UniProt P29317 25-976)
- Sequence (P29317 25-976): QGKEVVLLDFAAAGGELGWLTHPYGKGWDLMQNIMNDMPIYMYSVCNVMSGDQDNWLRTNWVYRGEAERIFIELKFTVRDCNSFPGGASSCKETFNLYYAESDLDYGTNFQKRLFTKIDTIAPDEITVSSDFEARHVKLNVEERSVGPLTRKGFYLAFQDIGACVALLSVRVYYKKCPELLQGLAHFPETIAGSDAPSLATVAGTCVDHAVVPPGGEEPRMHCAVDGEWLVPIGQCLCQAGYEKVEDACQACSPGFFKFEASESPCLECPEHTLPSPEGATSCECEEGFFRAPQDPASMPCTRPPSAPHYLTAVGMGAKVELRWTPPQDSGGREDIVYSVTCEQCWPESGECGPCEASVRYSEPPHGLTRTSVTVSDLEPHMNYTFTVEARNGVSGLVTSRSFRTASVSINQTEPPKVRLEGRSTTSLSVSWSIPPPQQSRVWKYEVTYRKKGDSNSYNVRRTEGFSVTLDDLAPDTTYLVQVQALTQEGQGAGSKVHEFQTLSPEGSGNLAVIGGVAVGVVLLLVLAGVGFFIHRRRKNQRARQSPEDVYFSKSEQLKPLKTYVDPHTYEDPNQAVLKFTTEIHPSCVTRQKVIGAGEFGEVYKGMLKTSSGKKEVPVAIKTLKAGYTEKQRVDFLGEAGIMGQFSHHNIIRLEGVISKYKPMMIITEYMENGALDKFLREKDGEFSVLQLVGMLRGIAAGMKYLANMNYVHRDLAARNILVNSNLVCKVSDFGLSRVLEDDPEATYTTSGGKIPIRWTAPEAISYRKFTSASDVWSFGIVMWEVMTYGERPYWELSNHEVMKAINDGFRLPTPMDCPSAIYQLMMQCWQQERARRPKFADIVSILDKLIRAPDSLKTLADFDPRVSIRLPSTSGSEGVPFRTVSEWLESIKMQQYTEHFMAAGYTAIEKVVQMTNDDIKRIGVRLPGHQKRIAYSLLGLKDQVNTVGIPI
- assay_protocol: cell-based or functional assay
measurement_name: ADCC - EC50 (nM), Trial 1, A549

>>> recorded_value("AB-010674 (antibody, V domains shown) VH: QVQLQQWGAGLLKPSETLSLTCAVYGGSFSDYYWSWIRQPPGKGLEWIGEINHRGSINYNNYNPSLKSRVTISVDTSKNQFSLKLSSVTAADTAVYYCAKPLRPHCTNGVCYSGDAFDIWGQGTMVTVAS VL: SYVLTQPPSVSVAPGQTARITCGGNNIGYKNVHWYQQKPGQAPVLVVYDDSDRPSGIPEQFSGSNSGNTATLTISRVEAGDEADYYCQVWDSESDHVVFGGGTKLTVL")
"~0.13 nM"

State, in one line, measured ADCC - EC50 (nM), Trial 1, A549 of AB-010665 (antibody, V domains shown) VH: QVQLQQWGAGLLKPSETLSLTCAVYGGSFSDYYWSWIRQPPGKGLEWIGEINHRGSINYNNYNPSLKSRVTISVDTSKNQFSLKLSSVTAADTAVYYCAKPLRPHCINGVCYSGDAFDIWGQGTMVTVAS VL: SYVLTQPPSVSVAPGQTARITCGGNNIGYKNVHWYQQKPGQAPVLVVYDDSDRPSGIPEQFSGSNSGNTATLTISRVEAGDEADYYCQVWDSSSDHVVFGGGTKLTVL
~0.23 nM

Note down ADCC - EC50 (nM), Trial 1, A549 recorded for AB-010671 (antibody, V domains shown) VH: QVQLQQWGAGLLKPSETLSLTCAVYGGSFSDYYWSWIRQPPGKGLEWIGEINHRGSINYNNYNPSLKSRVTISVDTSKNQFSLKLSSVTAADTAVYYCAKPLRPHCINGVCYSGDAFDIWGQGTMVTVAS VL: SYVLTQPPSVSVAPGQTARITCGGNNIGYKNVHWYQQKPGQAPVLVVYDDSDRPSGIPEQFSGSNSGNTATLTISRVEAGDEADYYCQVWDHSSDHVVFGGGTKLTVL
< 0.03 nM
